Where do these numbers come from? They come from patent US20160208233A1.

target: T1, Abz-LPESGK(Dnp)-CONH2
T1 chain: LPESGK
Non-standard residues stand in square brackets, D forms with d. No end group written: not given here. *: point of attachment. Dnp = O=[N+]([O-])c1ccc(*)c([N+](=O)[O-])c1; 2Abz = Nc1ccccc1C(=O)O
Consider the following proteins and their measured kcat/Km (Hz/M) readings.

{"columns": ["PROTEIN", "MEASURE_UNIT", "kcat/Km (Hz/M)"],
 "data": [
  ["evolved sortase A (eSrtA) (enzyme) QAKPQIPKDKSKVAGYIEIPDADIKEPVYPGPATREQLNRGVSFAEENESLDDQNISIAGHTFIDRPNYQFTNLKAAKKGSMVYFKVGNETRKYKMTSIRNVKPTAVEVLDEQKGKDKQLTLITCDDYNEETGVWETRKIFVATEVK", "Hz/M", 2650],
  ["4S.6C (protein) QAKPQIPKDKSKVAGYIEIPDADIKEPVYPGPATREQLDRGVSFVEENESLDDQNISITGHTAIDRPNYQFTNLRAAKKGSMVYFKVGNETRKYKMTSIRNVKPTAVEVLDEQKGKDKQLTLVTCDDYNFETGVWETRKIFVATEVK", "Hz/M", 4350]
]}
